System: MCF-10A
procedure.summary: normalised response (% of control), CellTiter-Glo; higher = more viable cells (100 = DMSO, 0 = benzethonium chloride kill control)
test.conditions: incubation time: 72 h
Recorded measurements of normalised response, one per entry
Respond with the bare value in %.

Below: 3 compounds and their reported normalised response.
COc1ccccc1S(=O)(=O)Nc1ccc2c(c1)CN(C)C(=O)N2 [PFI-1] (1000 nM); 98.6
COc1ccccc1S(=O)(=O)Nc1ccc2c(c1)CN(C)C(=O)N2 [PFI-1] (1 nM); 112
COc1ccc(-c2ccc3c(N4CCOC[C@@H]4C)nc(N4CCOC[C@@H]4C)nc3n2)cc1CO [AZD8055] (1 nM); 85.7

Read the next record carefully.
Task: Look up normalised response for this compound: COc1ccc(-c2ccc3c(N4CCOC[C@@H]4C)nc(N4CCOC[C@@H]4C)nc3n2)cc1CO [AZD8055] (1000 nM)
Output: 27.8

---

Tested on: MDA-MB-468
procedure.summary: normalised response (% of control), CellTiter-Glo; higher = more viable cells (100 = DMSO, 0 = benzethonium chloride kill control)
test.conditions: incubation time: 72 h
Please enter criterion met where normalised response is greater than or equal to 30%, and criterion not met where it is lower.

C/C(=C\c1csc(C)n1)[C@@H]1C[C@@H]2O[C@]2(C)CCC[C@H](C)[C@H](O)[C@@H](C)C(=O)C(C)(C)[C@@H](O)CC(=O)O1 [Patupilone] (1000 nM); criterion met
COc1ccccc1S(=O)(=O)Nc1ccc2c(c1)CN(C)C(=O)N2 [PFI-1] (10000 nM); criterion met
Cc1ccc(NC(=O)c2ccc(CN3CCN(C)CC3)cc2)cc1Nc1nccc(-c2cccnc2)n1 [Imatinib] (10000 nM); criterion met

Task: Quick check: does CC(C)c1c(C(=O)Nc2ccccc2)c(-c2ccccc2)c(-c2ccc(F)cc2)n1CC[C@@H](O)C[C@@H](O)CC(=O)O [Atorvastatin] (10000 nM) have normalised response greater than or equal to 30%?
Output: criterion not met

---

System: CAL-148
procedure.summary: drug sensitivity score (DSS), CellTiter-Glo (DSS (AUC-based score)); higher = stronger drug effect (viability inhibition or cytotoxicity); extreme values may be limits of the assay
test.conditions: incubation time: 72 h
measured.metric: drug sensitivity score
Lab note: jot down the number only; don't add units.

These recorded examples may help you get a feel for the data.
COc1ccccc1S(=O)(=O)Nc1ccc2c(c1)CN(C)C(=O)N2; 0
CO[C@H]1C[C@@H]2CC[C@@H](C)[C@@](O)(O2)C(=O)C(=O)N2CCCC[C@H]2C(=O)O[C@H]([C@H](C)C[C@@H]2CC[C@@H](OCCO)[C@H](OC)C2)CC(=O)[C@H](C)/C=C(\C)[C@@H](O)[C@@H](OC)C(=O)[C@H](C)C[C@H](C)/C=C/C=C/C=C/1C; 13.4

Task: Can you share its drug sensitivity score? I mean this compound: NS(=O)(=O)OC[C@@H]1C[C@@H](n2ccc3c(N[C@H]4CCc5ccccc54)ncnc32)C[C@@H]1O
Output: 0

Task: Using the record for CN(C)CCN1C(=O)c2cccc3cc(N)cc(c23)C1=O [Amonafide] , report its drug sensitivity score.
Output: 4.44

Task: Can you share its drug sensitivity score? I mean this compound: Nc1ncnc2c1c(COc1cccc(Cl)c1)nn2C1CCOCC1
Output: 0

Task: Quick check: drug sensitivity score of Nc1nc(OCc2cc(Br)cs2)c2[nH]cnc2n1 ?
Output: 0

---

Test system: MCF-10A
test.conditions: 72 h
measured.metric: EC50, CellTiter-Glo (µM)
State the answer as a number, implicitly in µM.

CN(C)CCN1C(=O)c2cccc3cc(N)cc(c23)C1=O [Amonafide]; 8.42

Task: Field request: EC50, CellTiter-Glo | item: Cn1cncc1[C@@](N)(c1ccc(Cl)cc1)c1ccc2c(c1)c(-c1cccc(Cl)c1)cc(=O)n2C
Output: 0.237

Task: Look at this molecule and give its reported EC50, CellTiter-Glo. COc1ccccc1S(=O)(=O)Nc1ccc2c(c1)CN(C)C(=O)N2
Output: 4.16

Task: Tell me the measured EC50, CellTiter-Glo of CCCCCCCCc1ccc(CCC(N)(CO)CO)cc1 , please.
Output: 3.35

---

System: MFM-223
procedure.summary: normalised response (% of control), CellTox Green; higher = less cell death (100 = DMSO, 0 = benzethonium chloride kill control)
test.conditions: incubation time: 72 h
Listed below: normalised response values for each entry.
Numbers only here, please. The scale is %.

Example entries and their recorded answers appear below.
CC(C)c1c(C(=O)Nc2ccccc2)c(-c2ccccc2)c(-c2ccc(F)cc2)n1CC[C@@H](O)C[C@@H](O)CC(=O)O [Atorvastatin] (10000 nM); 101
Cn1cncc1[C@@](N)(c1ccc(Cl)cc1)c1ccc2c(c1)c(-c1cccc(Cl)c1)cc(=O)n2C [Tipifarnib] (100 nM); 99.9
CN(C)CCN1C(=O)c2cccc3cc(N)cc(c23)C1=O [Amonafide] (100 nM); 106

Task: # query: normalised response of entry NS(=O)(=O)OC[C@@H]1C[C@@H](n2ccc3c(N[C@H]4CCc5ccccc54)ncnc32)C[C@@H]1O [Pevonedistat] (100 nM)
Output: 65.2

Task: I have this molecule here, CC(C)c1c(C(=O)Nc2ccccc2)c(-c2ccccc2)c(-c2ccc(F)cc2)n1CC[C@@H](O)C[C@@H](O)CC(=O)O [Atorvastatin] (100 nM) , and I need its recorded normalised response.
Output: 98

Task: // returns reported normalised response for input COc1ccc(-c2ccc3c(N4CCOC[C@@H]4C)nc(N4CCOC[C@@H]4C)nc3n2)cc1CO [AZD8055] (1000 nM)
Output: 93.6

---

System: CAL-51
procedure.summary: normalised response (% of control), CellTox Green; higher = less cell death (100 = DMSO, 0 = benzethonium chloride kill control)
test.conditions: incubation time: 72 h
The entries below come with measured normalised response values attached.
Lab book: enter the figure in %, no units written.

Example compounds with recorded normalised response:
Nc1nc(OCc2cc(Br)cs2)c2[nH]cnc2n1 [Lomeguatrib] (100 nM); 92.9
CC(C)(C#N)c1cc(Cn2cncn2)cc(C(C)(C)C#N)c1 [Anastrozole] (1000 nM); 113
Cc1ccc(NC(=O)c2ccc(CN3CCN(C)CC3)cc2)cc1Nc1nccc(-c2cccnc2)n1 [Imatinib] (10000 nM); 93.1
c1ccc([C@H]2CN3CCSC3=N2)cc1 [Levamisole] (100 nM); 112
c1ccc([C@H]2CN3CCSC3=N2)cc1 [Levamisole] (10000 nM); 113

Task: Give its normalised response value. Item: CC(C)(C#N)c1cc(Cn2cncn2)cc(C(C)(C)C#N)c1 [Anastrozole] (100 nM)
Output: 73.3

Task: Looking for the measured normalised response of CC[C@]1(O)C[C@H]2CN(CCc3c([nH]c4ccccc34)[C@@](C(=O)OC)(c3cc4c(cc3OC)N(C=O)[C@H]3[C@@](O)(C(=O)OC)[C@H](OC(C)=O)[C@]5(CC)C=CCN6CC[C@]43[C@@H]65)C2)C1 [Vincristine] (1000 nM) , can you help?
Output: 29.8

---

Documented drug sensitivity score across a set of compounds
Tested on: MDA-MB-231
procedure.summary: drug sensitivity score (DSS), CellTox Green (DSS (AUC-based score)); higher = stronger drug effect (viability inhibition or cytotoxicity); extreme values may be limits of the assay
test.conditions: incubation time: 72 h
A bare number is all that is needed in reply.

Before answering, review these 6 worked examples.
Cn1cncc1[C@@](N)(c1ccc(Cl)cc1)c1ccc2c(c1)c(-c1cccc(Cl)c1)cc(=O)n2C [Tipifarnib]; 0
CC[C@]1(O)C[C@H]2CN(CCc3c([nH]c4ccccc34)[C@@](C(=O)OC)(c3cc4c(cc3OC)N(C=O)[C@H]3[C@@](O)(C(=O)OC)[C@H](OC(C)=O)[C@]5(CC)C=CCN6CC[C@]43[C@@H]65)C2)C1 [Vincristine]; 15.7
NS(=O)(=O)OC[C@@H]1C[C@@H](n2ccc3c(N[C@H]4CCc5ccccc54)ncnc32)C[C@@H]1O [Pevonedistat]; 0
O=C1NC(=O)[C@@H](c2cn3c4c(cccc24)CCC3)[C@@H]1c1c[nH]c2ccccc12 [Tivantinib]; 3.62
CN(C)CCN1C(=O)c2cccc3cc(N)cc(c23)C1=O [Amonafide]; 0
CNNCc1ccc(C(=O)NC(C)C)cc1 [Procarbazine]; 0

Task: Would you mind telling me what drug sensitivity score value was observed for CO[C@H]1C[C@@H]2CC[C@@H](C)[C@@](O)(O2)C(=O)C(=O)N2CCCC[C@H]2C(=O)O[C@H]([C@H](C)C[C@@H]2CC[C@@H](OCCO)[C@H](OC)C2)CC(=O)[C@H](C)/C=C(\C)[C@@H](O)[C@@H](OC)C(=O)[C@H](C)C[C@H](C)/C=C/C=C/C=C/1C [Everolimus] ?
Output: 0

Task: Field request: drug sensitivity score | item: C/C(=C\c1csc(C)n1)[C@@H]1C[C@@H]2O[C@]2(C)CCC[C@H](C)[C@H](O)[C@@H](C)C(=O)C(C)(C)[C@@H](O)CC(=O)O1 [Patupilone]
Output: 9.94

Task: Please give the measured drug sensitivity score for this compound: CN(C)C[C@@H]1CCn2cc(c3ccccc32)C2=C(C(=O)NC2=O)c2cn(c3ccccc23)CCO1 [Ruboxistaurin]
Output: 7.98
